assay: Toxicity in Galleria mellonella larvae MDR Acinetobacter baumannii isolate assessed as mortality at 100 mg/kg measured after 24 hrs relative to control; format: ADME, organism-based; conditions: in vivo, read-out: Activity

chemicalSmiles	mortality at 24 h
CO[C@@H]1[C@@H](OC(N)=O)[C@@H](O)[C@H](Oc2ccc3c(O)c(NC(=O)c4ccc(O)c(CC=C(C)C)c4)c(=O)oc3c2C)OC1(C)C	100%

----------
Listed here: items and their measured MIC.
test system: Acinetobacter baumannii; assay: Antibacterial activity against novobiocin-resistant Acinetobacter baumannii ATCC 17978 mutant generated from seven serial passages by checkerboard assay; type: functional

chemicalSmiles	unitInfo	MIC
CO[C@@H]1[C@@H](OC(N)=O)[C@@H](O)[C@H](Oc2ccc3c(O)c(NC(=O)c4ccc(O)c(CC=C(C)C)c4)c(=O)oc3c2C)OC1(C)C	µg/mL	2050
CO[C@H]1/C=C/O[C@@]2(C)Oc3c(C)c(O)c4c(O)c(c(/C=N/N5CCN(C)CC5)c(O)c4c3C2=O)NC(=O)/C(C)=C\C=C\[C@H](C)[C@H](O)[C@@H](C)[C@@H](O)[C@@H](C)[C@H](OC(C)=O)[C@@H]1C	µg/mL	2
NC[C@H]1O[C@H](O[C@H]2[C@H](O)[C@@H](O[C@H]3O[C@H](CO)[C@@H](O)[C@H](N)[C@H]3O)[C@H](N)C[C@@H]2N)[C@H](N)C[C@@H]1O	µg/mL	1
O=C(N[C@H](CO)[C@H](O)c1ccc([N+](=O)[O-])cc1)C(Cl)Cl	µg/mL	32
CN(C)c1ccc(O)c2c1C[C@H]1C[C@H]3[C@H](N(C)C)C(O)=C(C(N)=O)C(=O)[C@@]3(O)C(O)=C1C2=O	µg/mL	0.5
CC(C)(O/N=C(\C(=O)N[C@@H]1C(=O)N2C(C(=O)[O-])=C(C[n+]3ccccc3)CS[C@H]12)c1csc(N)n1)C(=O)O	µg/mL	32

Source listed as ChEMBL document CHEMBL4376820.
